recorded-endpoint: Ki

For UniProt:P07550, provide Ki of O=C(N[C@H]1CCN(Cc2ccc(OC3CCNCC3)c(Br)c2)C1)c1ccc(Cl)c(Cl)c1 please. > 10 µM

* * *

system-tested: Cytochrome P450 2D6 (Homo sapiens)
Sequence (P10635 whole entry): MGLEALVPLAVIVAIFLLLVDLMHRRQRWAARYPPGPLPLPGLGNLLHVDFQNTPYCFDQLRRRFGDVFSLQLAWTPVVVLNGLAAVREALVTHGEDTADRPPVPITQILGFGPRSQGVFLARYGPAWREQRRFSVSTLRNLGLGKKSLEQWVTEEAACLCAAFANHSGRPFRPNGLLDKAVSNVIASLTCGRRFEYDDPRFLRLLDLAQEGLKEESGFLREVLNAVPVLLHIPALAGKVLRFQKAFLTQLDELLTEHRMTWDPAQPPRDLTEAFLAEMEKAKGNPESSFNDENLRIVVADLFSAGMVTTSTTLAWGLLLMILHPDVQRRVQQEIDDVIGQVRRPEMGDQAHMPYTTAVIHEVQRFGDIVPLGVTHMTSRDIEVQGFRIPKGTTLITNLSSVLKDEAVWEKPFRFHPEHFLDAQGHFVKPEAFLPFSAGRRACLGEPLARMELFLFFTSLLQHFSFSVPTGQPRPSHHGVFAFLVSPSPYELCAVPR
recorded-endpoint: IC50 (nM)
Give the number; nM is assumed, so skip it.

Any idea what its IC50 is? The compound is O=C(N[C@H]1CCN(Cc2ccc(OC3CCNCC3)c(Br)c2)C1)c1ccc(Cl)c(Cl)c1 2200

* * *

system-tested: 5-hydroxytryptamine receptor 6 (Homo sapiens, UniProt P50406)
Sequence (P50406 whole entry): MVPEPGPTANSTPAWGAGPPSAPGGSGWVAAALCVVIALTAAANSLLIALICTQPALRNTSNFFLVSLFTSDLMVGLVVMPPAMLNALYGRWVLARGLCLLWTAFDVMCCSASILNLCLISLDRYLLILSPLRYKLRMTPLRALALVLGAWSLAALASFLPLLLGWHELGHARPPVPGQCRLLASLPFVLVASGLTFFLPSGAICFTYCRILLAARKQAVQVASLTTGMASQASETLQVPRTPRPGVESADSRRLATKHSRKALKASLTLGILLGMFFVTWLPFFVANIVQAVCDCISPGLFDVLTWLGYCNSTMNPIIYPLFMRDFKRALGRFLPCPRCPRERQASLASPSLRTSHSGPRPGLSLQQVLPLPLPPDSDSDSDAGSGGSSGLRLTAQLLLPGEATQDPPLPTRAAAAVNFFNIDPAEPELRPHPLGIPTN
recorded-endpoint: pKi
# pKi: negative log10 of molar concentration; output just the value

For 5-hydroxytryptamine receptor 6 (Homo sapiens, UniProt P50406), provide pKi of O=C(N[C@H]1CCN(Cc2ccc(OC3CCNCC3)c(Br)c2)C1)c1ccc(Cl)c(Cl)c1 please. 5.39
